IC50 overview
target: Transient receptor potential cation channel subfamily M member 8 (Homo sapiens, UniProt Q7Z2W7); test: Antagonist activity at human TRPM8 expressed in CHOK1 cells assessed as inhibition of menthol-induced calcium flux incubated 10 mins prior to menthol addition by FLIPR assay relative to control
Sequence (Q7Z2W7 whole entry): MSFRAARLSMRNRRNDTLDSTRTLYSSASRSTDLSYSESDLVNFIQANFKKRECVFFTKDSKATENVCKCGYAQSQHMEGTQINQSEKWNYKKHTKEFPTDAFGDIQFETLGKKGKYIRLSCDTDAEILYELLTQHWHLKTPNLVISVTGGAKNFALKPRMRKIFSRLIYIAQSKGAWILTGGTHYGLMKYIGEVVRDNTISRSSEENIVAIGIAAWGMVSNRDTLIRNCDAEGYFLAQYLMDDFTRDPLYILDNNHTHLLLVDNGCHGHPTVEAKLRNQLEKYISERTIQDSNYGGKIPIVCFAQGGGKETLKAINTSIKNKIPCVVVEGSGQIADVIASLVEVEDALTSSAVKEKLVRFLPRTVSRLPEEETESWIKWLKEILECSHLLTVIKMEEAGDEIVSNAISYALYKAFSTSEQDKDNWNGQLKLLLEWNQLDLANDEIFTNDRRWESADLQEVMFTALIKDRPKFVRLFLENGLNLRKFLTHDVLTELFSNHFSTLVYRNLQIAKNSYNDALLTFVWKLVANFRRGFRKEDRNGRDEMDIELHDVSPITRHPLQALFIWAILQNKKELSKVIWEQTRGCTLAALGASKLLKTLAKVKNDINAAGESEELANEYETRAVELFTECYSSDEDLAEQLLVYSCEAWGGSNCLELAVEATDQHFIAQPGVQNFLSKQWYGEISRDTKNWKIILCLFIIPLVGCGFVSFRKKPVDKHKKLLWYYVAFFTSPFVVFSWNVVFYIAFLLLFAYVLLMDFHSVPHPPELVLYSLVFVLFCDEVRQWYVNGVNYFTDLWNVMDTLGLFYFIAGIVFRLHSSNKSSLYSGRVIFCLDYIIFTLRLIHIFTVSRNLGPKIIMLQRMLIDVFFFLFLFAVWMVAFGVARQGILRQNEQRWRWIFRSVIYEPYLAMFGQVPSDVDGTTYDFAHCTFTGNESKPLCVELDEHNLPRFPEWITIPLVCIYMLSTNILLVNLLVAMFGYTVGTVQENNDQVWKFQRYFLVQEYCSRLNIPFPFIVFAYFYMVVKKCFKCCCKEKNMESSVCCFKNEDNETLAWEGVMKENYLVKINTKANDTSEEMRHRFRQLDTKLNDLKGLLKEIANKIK
READOUT TYPE: IC50

- CHEMICAL STRUCTURE: "FC(F)(F)c1ccccc1-c1cc2cn[nH]c2cc1Cl"
  RESULT: "17.1 µM"
- CHEMICAL STRUCTURE: "FC(F)(F)c1ccccc1-c1cc2cn[nH]c2cc1OCC1CC1"
  RESULT: "4.4 µM"
- CHEMICAL STRUCTURE: "FC(F)(F)Oc1cc2[nH]ncc2cc1-c1ccccc1C(F)(F)F"
  RESULT: "6.4 µM"
- CHEMICAL STRUCTURE: "FC(F)(F)c1ccccc1-c1ccc2[nH]ncc2c1"
  RESULT: "9 µM"
- CHEMICAL STRUCTURE: "COc1cc2[nH]ncc2cc1-c1ccccc1C(F)(F)F"
  RESULT: "10.9 µM"
- CHEMICAL STRUCTURE: "Cc1cc2[nH]ncc2cc1-c1ccccc1C(F)(F)F"
  RESULT: "9.2 µM"
